Entry source: paper PMC12263422

# tested system: THIK-1 F142A (Homo sapiens, UniProt Q9HB14, F142A)
# Construct: expressed in transfected cells; host or cells: Xenopus oocytes (mRNA injection)
# Sequence (Q9HB14 1-408 F142A): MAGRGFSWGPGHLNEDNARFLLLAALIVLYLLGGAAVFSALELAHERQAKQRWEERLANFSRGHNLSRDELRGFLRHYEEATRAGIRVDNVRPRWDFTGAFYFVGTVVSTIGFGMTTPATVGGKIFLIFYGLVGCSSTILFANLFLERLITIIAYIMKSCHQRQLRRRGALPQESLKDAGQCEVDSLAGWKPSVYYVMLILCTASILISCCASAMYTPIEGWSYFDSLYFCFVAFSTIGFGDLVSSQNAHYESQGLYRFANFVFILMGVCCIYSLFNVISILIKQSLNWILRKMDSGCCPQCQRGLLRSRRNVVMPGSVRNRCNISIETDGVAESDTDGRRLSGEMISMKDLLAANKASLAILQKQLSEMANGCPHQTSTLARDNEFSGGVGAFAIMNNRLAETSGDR
# assay: Inside-out excised patch recordings, oocytes, THIK-1 F142A mutant
# Format: cell-based
# details: mean, read-out: TPenA IC50
parameter: pIC50
Would you please state pIC50, meaning minus log10 of the concentration in mol/L, as a bare number?

State the recorded pIC50 for this entry: CCCCC[N+](CCCCC)(CCCCC)CCCCC 3.49

====

# tested system: THIK-1 C135A (Homo sapiens, UniProt Q9HB14, C135A)
# Construct: expressed in transfected cells; host or cells: Xenopus oocytes (mRNA injection)
# assay: Inside-out excised patch recordings, oocytes, THIK-1 C135A mutant
# Type: cell-based
# details: THIK-1 C135A, mean; read-out: TPenA IC50
parameter: IC50 (µM)
Express the result in µM but write the number alone.

State the recorded IC50 for this entry: CCCCC[N+](CCCCC)(CCCCC)CCCCC 1060

====

# tested system: THIK-1 R92A (Homo sapiens, UniProt Q9HB14, R92A)
# Construct: expressed in transfected cells; host or cells: Xenopus oocytes (mRNA injection)
# assay: Inside-out excised patch recordings, oocytes, THIK-1 R92A mutant (lipid activation)
# Type: cell-based
# details: Linoleic acid EC50, THIK-1 R92A, mean
parameter: EC50 (µM)
Express the result in µM but write the number alone.

State the recorded EC50 for this entry: CCCCC/C=C\C/C=C\CCCCCCCC(=O)O 62.6

====

# tested system: Human K2P13.1 THIK-1 (WT) (Homo sapiens, UniProt Q9HB14)
# Construct: expressed in transfected cells; host or cells: Xenopus oocytes (mRNA injection)
# Sequence (Q9HB14 1-408): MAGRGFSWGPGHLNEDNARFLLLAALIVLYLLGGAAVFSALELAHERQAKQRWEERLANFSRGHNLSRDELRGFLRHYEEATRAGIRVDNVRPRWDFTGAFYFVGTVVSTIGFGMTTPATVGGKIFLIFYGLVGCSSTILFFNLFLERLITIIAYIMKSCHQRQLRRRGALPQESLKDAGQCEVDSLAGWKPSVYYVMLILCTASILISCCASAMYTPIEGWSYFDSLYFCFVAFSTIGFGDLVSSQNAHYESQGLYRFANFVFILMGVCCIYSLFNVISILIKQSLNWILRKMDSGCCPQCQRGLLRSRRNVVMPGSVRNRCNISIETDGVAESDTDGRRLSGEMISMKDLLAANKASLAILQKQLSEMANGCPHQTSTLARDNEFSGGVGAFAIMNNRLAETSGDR
# assay: Macroscopic inside-out excised patch recordings from Xenopus oocytes expressing WT THIK-1; compounds applied to the intracellular side
# Type: cell-based
# details: applied intracellularly to excised patches; WT; read-out: half-maximal effective concentration (activation)
parameter: EC50 (µM)
Express the result in µM but write the number alone.

State its EC50 on Human K2P13.1 THIK-1 (WT) (Homo sapiens, UniProt Q9HB14): CCCCC/C=C\C/C=C\CCCCCCCC(=O)O [linoleic acid] 29

====

# tested system: THIK-1 T237A (Homo sapiens, UniProt Q9HB14, T237A)
# Construct: expressed in transfected cells; host or cells: Xenopus oocytes (mRNA injection)
# assay: Inside-out excised patch recordings, oocytes, THIK-1 T237A mutant
# Type: cell-based
# details: TPenA IC50, THIK-1 T237A, mean
parameter: IC50 (µM)
Express the result in µM but write the number alone.

State the recorded IC50 for this entry: CCCCC[N+](CCCCC)(CCCCC)CCCCC [TPenA, tetrapentylammonium] 751

====

# tested system: Human K2P13.1 THIK-1 (WT) (Homo sapiens)
# Construct: expressed in transfected cells; host or cells: Xenopus oocytes (mRNA injection)
# assay: Macroscopic inside-out excised patch recordings from Xenopus oocytes expressing WT THIK-1; compounds applied to the intracellular side
# Assay type: cell-based
# details: TPenA IC50, intracellular application to excised patches; WT unstimulated
parameter: IC50 (µM)
Express the result in µM but write the number alone.

State the recorded IC50 for this entry: CCCCC[N+](CCCCC)(CCCCC)CCCCC [TPenA, tetrapentylammonium] 225

====

# tested system: THIK-1 N261A (Homo sapiens, UniProt Q9HB14, N261A)
# Construct: expressed in transfected cells; host or cells: Xenopus oocytes (mRNA injection)
# Sequence (Q9HB14 1-408 N261A): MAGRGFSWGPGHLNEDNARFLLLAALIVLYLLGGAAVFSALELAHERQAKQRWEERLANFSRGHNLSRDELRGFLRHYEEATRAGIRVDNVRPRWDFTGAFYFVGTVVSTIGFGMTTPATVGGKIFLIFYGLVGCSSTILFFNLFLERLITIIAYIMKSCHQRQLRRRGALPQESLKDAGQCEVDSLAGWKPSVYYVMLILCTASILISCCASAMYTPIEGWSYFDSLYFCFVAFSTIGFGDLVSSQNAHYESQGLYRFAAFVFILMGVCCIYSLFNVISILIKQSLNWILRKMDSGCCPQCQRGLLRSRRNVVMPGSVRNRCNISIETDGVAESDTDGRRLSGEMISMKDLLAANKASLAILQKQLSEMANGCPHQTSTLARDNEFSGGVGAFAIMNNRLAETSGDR
# assay: Inside-out excised patch recordings, oocytes, THIK-1 N261A mutant (lipid activation)
# Type: cell-based
# details: mean, read-out: Linoleic acid EC50
parameter: pEC50
Would you please state pEC50, meaning minus log10 of the concentration in mol/L, as a bare number?

State the recorded pEC50 for this entry: CCCCC/C=C\C/C=C\CCCCCCCC(=O)O [linoleic acid] 3.96

====

# tested system: THIK-1 T110A (Homo sapiens, UniProt Q9HB14, T110A)
# Construct: expressed in transfected cells; host or cells: Xenopus oocytes (mRNA injection)
# assay: Inside-out excised patch recordings, oocytes, THIK-1 T110A mutant
# Format: cell-based
# details: TPenA IC50, THIK-1 T110A, mean
parameter: pIC50
Would you please state pIC50, meaning minus log10 of the concentration in mol/L, as a bare number?

State the recorded pIC50 for this entry: CCCCC[N+](CCCCC)(CCCCC)CCCCC [TPenA, tetrapentylammonium] 2.89

====

# tested system: THIK-1 T110A (Homo sapiens, UniProt Q9HB14, T110A)
# Construct: expressed in transfected cells; host or cells: Xenopus oocytes (mRNA injection)
# assay: Inside-out excised patch recordings, oocytes, THIK-1 T110A mutant
# Format: cell-based
# details: TPenA IC50, T110A mutant
parameter: IC50 (µM)
Express the result in µM but write the number alone.

State its IC50 on THIK-1 T110A (Homo sapiens, UniProt Q9HB14, T110A): CCCCC[N+](CCCCC)(CCCCC)CCCCC 1280

====

# tested system: THIK-1 S109A (Homo sapiens, UniProt Q9HB14, S109A)
# Construct: expressed in transfected cells; host or cells: Xenopus oocytes (mRNA injection)
# assay: Inside-out excised patch recordings, oocytes, THIK-1 S109A mutant (lipid activation)
# Assay type: cell-based
# details: mean, read-out: Linoleic acid EC50
parameter: pEC50
Would you please state pEC50, meaning minus log10 of the concentration in mol/L, as a bare number?

State the recorded pEC50 for this entry: CCCCC/C=C\C/C=C\CCCCCCCC(=O)O 4.25

====

# tested system: THIK-1 F262A (Homo sapiens, UniProt Q9HB14, F262A)
# Construct: expressed in transfected cells; host or cells: Xenopus oocytes (mRNA injection)
# assay: Inside-out excised patch recordings, oocytes, THIK-1 F262A mutant (lipid activation)
# Format: cell-based
# details: Linoleic acid EC50, THIK-1 F262A, mean
# Experimental: Human K2P13.1 THIK-1 (GenBank accession number: NM_022054) and human K2P12.1 THIK-2 (NM_022055.1) were used in this study. […] Two-electrode voltage–clamp (TEVC) studies were performed in Xenopus oocytes. […] Currents were recorded with an EPC10 amplifier (HEKA Electronics) and sampled at 10 kHz or higher, with filtering set to 3 kHz (–3 dB) or higher, as appropriate for sampling rate. […] Data were filtered at 2 kHz and recorded at a 200-kHz sampling rate with the program Clampex (Molecular Devices). […]
parameter: EC50 (µM)
Express the result in µM but write the number alone.

State the recorded EC50 for this entry: CCCCC/C=C\C/C=C\CCCCCCCC(=O)O [linoleic acid] 107
